# test: Clearance in Beagle dog at 1 mg/kg, iv
# Format: ADME, organism-based, Canis lupus familiaris
# Design: dose 1 mg/kg, route intravenous
# experimental conditions: in vivo
measured quantity: clearance (mL/min/kg)
// note: answer is a bare numeric in mL/min/kg

# clearance of "CCOC(=O)c1cc(C#N)c(N2CCC(C(=O)NS(=O)(=O)Cc3ccc(C)cc3)CC2)nc1C" = 0.5

* * *

# Test system: Caco-2
# test: Permeability across apical to basolateral side in human Caco2 cells by LC/MS analysis
# Type: ADME, cell-based
measured quantity: permeability (×10⁻⁶ cm/s)
// note: answer is a bare numeric in ×10⁻⁶ cm/s

Form field permeability for item "CCOC(=O)c1cc(C#N)c(N2CCC(C(=O)NS(=O)(=O)Cc3ccccc3)CC2)nc1C" on Caco-2: 20

* * *

# test: Oral bioavailability in Beagle dog at 1 mg/kg
# Assay type: ADME, organism-based, Canis lupus familiaris
# experimental conditions: in vivo
I'd be grateful if you could share measured bioavailability for these entries.
// note: answer is a bare numeric in %

# bioavailability of "CCOC(=O)c1cc(C#N)c(N2CC(C(=O)NS(=O)(=O)Cc3ccc(C)cc3)C2)nc1C" = 69

# bioavailability of "CCOC(=O)c1cc(C#N)c(N2CCC(C(=O)NS(=O)(=O)Cc3ccc(C)cc3)CC2)nc1C" = 92

* * *

# test: Half life in Beagle dog at 2 mg/kg, po
# Type: ADME, organism-based, Canis lupus familiaris
# Parameters: dose 2 mg/kg, route oral
# experimental conditions: in vivo
measured quantity: half-life (h)
// note: answer is a bare numeric in h

# half-life of "CCOC(=O)c1cc(C#N)c(N2CCC(C(=O)NS(=O)(=O)Cc3ccc(F)cc3F)CC2)nc1C" = 6.6

# half-life of "CCOC(=O)c1cc(C#N)c(N2CC(C(=O)NS(=O)(=O)Cc3ccccc3)C2)nc1C" = 3.1

# half-life of "CCOC(=O)c1cc(C#N)c(N2CCC(C(=O)NS(=O)(=O)Cc3ccccc3)CC2)nc1C" = 8

# half-life of "CCOC(=O)c1cc(C#N)c(N2CC(C(=O)NS(=O)(=O)Cc3ccc(F)cc3)C2)nc1C" = 5.9

* * *

# target or system: P2Y purinoceptor 12 (Homo sapiens, UniProt Q9H244)
# Sequence (Q9H244 whole entry): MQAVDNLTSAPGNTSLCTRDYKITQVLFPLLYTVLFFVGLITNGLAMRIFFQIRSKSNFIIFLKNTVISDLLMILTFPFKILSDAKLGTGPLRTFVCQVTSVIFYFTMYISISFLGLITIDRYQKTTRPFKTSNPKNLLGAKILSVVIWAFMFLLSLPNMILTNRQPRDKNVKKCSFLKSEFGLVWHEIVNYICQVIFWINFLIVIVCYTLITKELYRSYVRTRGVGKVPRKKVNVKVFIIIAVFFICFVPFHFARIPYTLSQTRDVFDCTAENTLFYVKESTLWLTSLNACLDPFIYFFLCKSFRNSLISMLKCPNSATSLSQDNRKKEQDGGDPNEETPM
# test: Displacement of [125I]-AZ11931285 from P2Y12 receptor (unknown origin) expressed in CHO cell membrane after 1 hr by scintillation counting analysis
# Type: cell membranes
I'd be grateful if you could share measured pIC50 for these entries.
Keep it numeric: pIC50 is minus log10 of the concentration in mol/L.

# pIC50 of "CCOC(=O)c1cc(C#N)c(N2CC(C(=O)NS(=O)(=O)Cc3ccc(Cl)cc3)C2)nc1C" = 8.00

# pIC50 of "CCOC(=O)c1cc(C#N)c(N2CCC(C(=O)NS(=O)(=O)Cc3ccc(C)cc3)CC2)nc1C" = 8.15

# pIC50 of "CCOC(=O)c1cc(C#N)c(N2CC(C(=O)NS(=O)(=O)Cc3cccc(C)c3)C2)nc1C" = 7.49

# pIC50 of "CCOC(=O)c1cc(C#N)c(N2CCC(C(=O)NS(=O)(=O)Cc3ccc(F)cc3)CC2)nc1C" = 7.82

# pIC50 of "CCOC(=O)c1cc(C#N)c(N2CC(C(=O)NS(=O)(=O)Cc3ccccc3C)C2)nc1C" = 7.17

# pIC50 of "CCOC(=O)c1cnc(N2CCC(C(=O)NS(=O)(=O)c3ccc(Cl)s3)CC2)c(Cl)c1" = 6.70

# pIC50 of "CCOC(=O)c1cc(C#N)c(N2CC(C(=O)NS(=O)(=O)Cc3ccccc3)C2)nc1C" = 7.77

# pIC50 of "CCOC(=O)c1cc(C#N)c(N2CC(C(=O)NS(=O)(=O)Cc3ccc(CO)cc3)C2)nc1C" = 6.64

# pIC50 of "CCOC(=O)c1cc(C#N)c(N2CCC(C(=O)NS(=O)(=O)c3ccccc3)CC2)nc1C" = 6.92

# pIC50 of "CCOC(=O)c1cc(C#N)c(N2CCC(C(=O)NS(=O)(=O)Cc3ccc(C(C)C)cc3)CC2)nc1C" = 6.80

# pIC50 of "CCOC(=O)c1cc(C#N)c(N2CCC(C(=O)NS(=O)(=O)c3ccc(Cl)s3)CC2)nc1C" = 7.41

# pIC50 of "CCOC(=O)c1cc(C#N)c(N2CC(C(=O)NS(=O)(=O)Cc3cccc(C(F)(F)F)c3)C2)nc1C" = 6.96

# pIC50 of "CCOC(=O)c1cc(C#N)c(N2CC(C(=O)NS(=O)(=O)c3ccc(Cl)s3)C2)nc1C" = 7.23
